Measured values drawn from patent US20070117743A1 for this set.

Test system: HT-29
Assay: SRB colorimetric assay of cell growth and viability, HT-29
Assay type: cell-based, human
Settings: HT-29; 48 hours exposure; read-out: LC50 HT-29
Where a SMILES comes first, the peptide text is derived from it. Bridges are numbered along the chain shown (N, C = ends). [ ]: non-standard residue; d: D form. The star is where a group is joined. 2Nal = N[C@@H](Cc1ccc2ccccc2c1)C(=O)O; d(aIle) = CC[C@H](C)[C@@H](N)C(=O)O; d(aThr) = C[C@@H](O)[C@@H](N)C(=O)O; Hexanoyl(5-Me) = CC(C)CCCC(=O)*; Orn = NCCC[C@H](N)C(=O)O; Dhb = C/C=C(\N)C(=O)O
Hi there, I'd appreciate the recorded CC50 for every entry that follows.
Answers are plain numbers, in µM.

Worked examples follow.
C/C=C1\NC(=O)[C@H](Cc2ccccc2Cl)NC(=O)[C@@H](C(C)C)NC(=O)[C@@H]([C@@H](C)CC)NC(=O)[C@H](NC(=O)[C@H](NC(=O)[C@H](CCCN)NC(=O)[C@H]2CCCN2C(=O)[C@H](NC(=O)[C@@H](NC(=O)[C@@H](NC(=O)[C@H](NC(=O)CCCC(C)C)C(C)C)[C@@H](C)O)C(C)C)C(C)C)[C@@H](C)CC)[C@@H](C)OC(=O)[C@H](C(C)C)NC1=O [Compound 81, [Phe(2-Cl)^3]-KF] : 0.543
C/C=C1\NC(=O)[C@H](Cc2ccccc2)NC(=O)[C@@H](C(C)C)NC(=O)[C@@H]([C@@H](C)CC)NC(=O)[C@H](NC(=O)[C@H](NC(=O)[C@H](CCCN)NC(=O)[C@H]2CCCN2C(=O)[C@H](NC(=O)[C@@H](NC(=O)[C@@H](NC(=O)[C@@H](CCCN)NC(=O)CCCC(C)C)[C@@H](C)O)C(C)C)C(C)C)[C@@H](C)CC)[C@@H](C)OC(=O)[C@H](C(C)C)NC1=O [Compound 118, [D-Orn^13]-KF] : 6.7
C/C=C1\NC(=O)[C@H](Cc2ccc3ccccc3c2)NC(=O)[C@@H](C(C)C)NC(=O)[C@@H]([C@@H](C)CC)NC(=O)[C@H](NC(=O)[C@H](NC(=O)[C@H](CCCN)NC(=O)[C@H]2CCCN2C(=O)[C@H](NC(=O)[C@@H](NC(=O)[C@@H](NC(=O)[C@H](NC(=O)CCCC(C)C)C(C)C)[C@@H](C)O)C(C)C)C(C)C)[C@@H](C)CC)[C@@H](C)OC(=O)[C@H](C(C)C)NC1=O [Compound 85, [Nal^3]-KF] ({Hexanoyl(5-Me)}-[dV]TV[dV][dP][Orn][d(aIle)][d(aThr)][d(aIle)][dV][2Nal][Dhb]V; ester 8-C) : 0.278

// moving on: another record for CC50
response.value for C/C=C1\NC(=O)[C@H](Cc2ccccc2)NC(=O)[C@@H](C(C)C)NC(=O)[C@@H]([C@@H](C)CC)NC(=O)[C@H](NC(=O)[C@H](NC(=O)[C@H](CCCN)NC(=O)[C@H]2CCCN2C(=O)[C@H](NC(=O)[C@@H](NC(=O)[C@H](CC(C)C)NC(=O)[C@H](NC(=O)CCCC(C)C)C(C)C)C(C)C)C(C)C)[C@@H](C)CC)[C@@H](C)OC(=O)[C@H](C(C)C)NC1=O [Compound 113, [Leu^12]-KF] ({Hexanoyl(5-Me)}-[dV]LV[dV][dP][Orn][d(aIle)][d(aThr)][d(aIle)][dV]F[Dhb]V; ester 8-C) (field: CC50) = 4.5
